Target: human TLR2 (Homo sapiens)
Construct: host or cells: HEK-Blue hTLR2 (HEK-293)
Experiment: HEK-Blue hTLR2 antagonism assay (SEAP reporter) with agonist Pam2CSK4 (TLR2/6 agonist)
Assay type: cell-based
Conditions: Table B; HEK-Blue hTLR2 cells, ~3×EC50 Pam2CSK4, 18 h, SEAP OD 655 nm, 8-point dilutions
Readout Kind: IC50 (µM)

Record excerpt, results attached:
O=Cc1cc(C(=O)Nc2ccc(N3CCC4(CC4)C3)cc2)cc(F)c1O :: 4.1
O=Cc1cc(C(=O)Nc2ccccc2)cc(F)c1O :: 12
CC1(C)CN(c2ccc(NC(=O)c3cc(F)c(O)c(C=O)c3)cn2)c2ccc(F)cc21 :: 0.6

(I) O=Cc1cc(NC(=O)c2ccccc2)cc(F)c1O
(II) O=Cc1c(O)cc(C#Cc2ccc(N3CCOCC3)cc2)cc1F
Ask | Would you kindly point out which of I and II has the smaller IC50 figure? Kindly give the label for the entry you pick.
Reply | II
(II: 3.8 µM, I: 8.1 µM)

###

Target: human TLR2 (Homo sapiens, UniProt O60603)
Construct: host or cells: HEK-Blue hTLR2 (HEK-293)
Sequence (O60603 21-784): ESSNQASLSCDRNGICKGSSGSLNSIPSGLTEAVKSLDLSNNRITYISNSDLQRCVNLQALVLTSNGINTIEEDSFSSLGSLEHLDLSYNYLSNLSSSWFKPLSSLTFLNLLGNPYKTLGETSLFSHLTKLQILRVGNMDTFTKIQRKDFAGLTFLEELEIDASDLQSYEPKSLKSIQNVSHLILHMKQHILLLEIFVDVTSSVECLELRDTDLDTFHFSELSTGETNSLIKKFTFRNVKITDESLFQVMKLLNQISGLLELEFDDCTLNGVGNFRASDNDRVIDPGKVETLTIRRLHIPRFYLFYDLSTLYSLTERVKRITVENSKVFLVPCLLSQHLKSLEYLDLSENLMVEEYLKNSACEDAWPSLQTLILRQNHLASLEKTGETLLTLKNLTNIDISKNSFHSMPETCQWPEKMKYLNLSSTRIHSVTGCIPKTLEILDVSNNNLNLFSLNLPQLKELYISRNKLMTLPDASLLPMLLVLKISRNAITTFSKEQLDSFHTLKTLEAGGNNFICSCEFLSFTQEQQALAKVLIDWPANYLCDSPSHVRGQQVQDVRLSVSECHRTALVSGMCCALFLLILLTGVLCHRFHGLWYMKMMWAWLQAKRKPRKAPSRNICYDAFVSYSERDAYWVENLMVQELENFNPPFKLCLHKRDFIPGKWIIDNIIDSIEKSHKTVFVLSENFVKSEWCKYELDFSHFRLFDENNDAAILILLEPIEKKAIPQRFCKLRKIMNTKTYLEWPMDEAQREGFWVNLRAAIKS
Assay: HEK-Blue hTLR2 antagonism assay (SEAP reporter) with agonist Pam2CSK4 (TLR2/6 agonist)
Assay type: cell-based
Conditions: Table A; HEK-Blue hTLR2 cells, ~3×EC50 Pam2CSK4, 18 h, SEAP OD 655 nm, 8-point dilutions
Readout Kind: IC50 (µM)

Record excerpt, results attached:
O=Cc1cc(-c2cnn(-c3cccc(N4CCOCC4)c3)c2)cc(F)c1O :: 4.3
O=Cc1cc(-c2nc(-c3ccccc3)cs2)cc(F)c1O :: 4.8
COc1cc(-c2cnn(-c3cccc(Cl)c3)c2)cc(C=O)c1O :: 9.9
O=Cc1cc(-c2cn(-c3ccc(N4CCCC4)cc3)cn2)cc(F)c1O :: 2.3
O=Cc1cc(-c2cnn(-c3ccc(N4CCCCC4)cc3)c2)cc(F)c1O :: 0.5

(I) COc1cc(-c2cnn(Cc3ccccc3)c2)cc(C=O)c1O
(II) O=Cc1cc(-c2cnn(-c3ccc(N4CCCC4)cc3)c2)cc(F)c1O
(III) COCCCn1cc(-c2cc(C=O)c(O)c(OC)c2)cn1
(IV) O=Cc1cc(-c2ccn(-c3cccc(N4CCCCC4)c3)n2)cc(F)c1O
Ask | Hello, I need these entries ordered by IC50, highest reading first. Thanks! Write the labels, ordered according to the request.
Reply | III, I, IV, II
(III: 36.8 µM, I: 8.5 µM, IV: 3.4 µM, II: 0.5 µM)

(I) O=Cc1cc(-c2nnc(-c3ccccc3)s2)cc(F)c1O
(II) Oc1c(F)cc(-c2cnn(-c3ccc(N4CCCC4)cc3)c2)cc1/C=N/Oc1ccccc1
Ask | From the recorded data, which exceeds the other in IC50: I or II ? Kindly give the label for the entry you pick.
Reply | I

(I) O=Cc1cc(-c2cnc(-c3ccc(N4CCCC4)nc3)s2)cc(F)c1O
(II) COc1ccc(Cn2cc(-c3cc(C=O)c(O)c(OC)c3)cn2)cc1
(III) O=Cc1cc(-c2csc(-c3ccc(N4CCCC4)cc3)c2)cc(F)c1O
Ask | Hello, I need these entries ordered by IC50, highest reading first. Thanks! Write the labels, ordered according to the request.
Reply | II, I, III
(II: 5.2 µM, I: 1.9 µM, III: 0.7 µM)

###

Biological target: human TLR2 (Homo sapiens, UniProt O60603)
Construct: host or cells: HEK-Blue hTLR2 (HEK-293)
Experiment: HEK-Blue hTLR2 antagonism assay (SEAP reporter) with agonist Pam2CSK4 (TLR2/6 agonist)
Assay type: cell-based
Conditions: Table A; HEK-Blue hTLR2 cells, ~3×EC50 Pam2CSK4, 18 h, SEAP OD 655 nm, 8-point dilutions
Readout Kind: IC50 (µM)

(1) Cc1nc(-c2ccc(N3CCCC3)nc2)sc1-c1cc(F)c(O)c(C=O)c1
(2) O=Cc1cc(-c2cn(-c3ccc(N4CCCC4)cc3)nn2)cc(F)c1O
(3) Oc1c(F)cc(-c2cnn(-c3ccc(N4CCCC4)cc3)c2)cc1/C=N/c1ccccc1
Ask | Kindly order the items shown according to IC50, from the highest value down. Write the labels, ordered according to the request.
Reply | 1, 2, 3

###

Target: human TLR2 (Homo sapiens)
Construct: host or cells: HEK-Blue hTLR2 (HEK-293)
Test: HEK-Blue hTLR2 antagonism assay (SEAP reporter) with agonist Pam2CSK4 (TLR2/6 agonist)
Format: cell-based
Details: Table B; HEK-Blue hTLR2 cells, ~3×EC50 Pam2CSK4, 18 h, SEAP OD 655 nm, 8-point dilutions
Readout Kind: IC50 (µM)

O=Cc1cc(C(=O)Nc2ccc(N3CCCCC3)cc2)cc(F)c1O :: 1.8
O=Cc1cc(C(=O)Nc2ccc(N3CCN(c4ccccc4)CC3)nc2)cc(F)c1O :: 2
O=Cc1cc(S(=O)(=O)Nc2ccc(N3CCCC3)cc2)cc(F)c1O :: 12.7

(P) O=Cc1cc(C(=O)Nc2ccc(N3Cc4ccccc4C3)nc2)cc(F)c1O
(Q) COc1cc(C#Cc2ccc(N3CCOCC3)cc2)cc(C=O)c1O
(R) CC1(C)CCN(c2ccc(NC(=O)c3cc(F)c(O)c(C=O)c3)cc2)C1
Ask | Ascending by IC50, please. Write the labels, ordered according to the request.
Reply | R, Q, P

(P) O=Cc1cc(C(=O)Nc2ccc(N3CCCC3)cc2)cc(F)c1O
(Q) O=Cc1cc(NC(=O)Nc2ccccc2)cc(F)c1O
(R) COc1cc(C#Cc2ccc(N3CCCC3)cc2)cc(O)c1C=O
Ask | Hello, I need these entries ordered by IC50, highest reading first. Thanks! Write the labels, ordered according to the request.
Reply | R, Q, P

(a) O=Cc1c(O)cc(C#Cc2ccc(N3CCCCC3)cc2)cc1F
(b) CN(CC(C)(C)C)c1ccc(NC(=O)c2cc(F)c(O)c(C=O)c2)cc1
Ask | From the recorded data, which exceeds the other in IC50: a or b ? Kindly give the label for the entry you pick.
Reply | a

(a) O=Cc1cc(C(=O)Nc2ccc(N3C4CCCC3CC4)cc2)cc(F)c1O
(b) O=Cc1cc(C(=O)Nc2cccc(N3CCCCC3)c2)cc(F)c1O
(c) O=Cc1cc(C(=O)Nc2ccc(N3CCCC3)c(C(F)(F)F)c2)cc(F)c1O
(d) O=Cc1cc(C(=O)Nc2ccc(N3CC4(CCC4)C3)cc2)cc(F)c1O
(e) O=Cc1cc(NC(=O)Nc2ccc(N3CCCC3)cc2)cc(F)c1O
Ask | Ascending by IC50, please. Write the labels, ordered according to the request.
Reply | d, a, c, b, e
(d: 0.6 µM, a: 1.4 µM, c: 2.2 µM, b: 4.6 µM, e: 8.7 µM)

(P) O=Cc1cc(C(=O)Nc2ccc(N3CCOc4ccccc43)cc2)cc(F)c1O
(Q) O=Cc1cc(C(=O)Nc2ccc(N3CCc4ccccc4C3)cc2)cc(F)c1O
Ask | From the recorded data, which exceeds the other in IC50: P or Q ? Kindly give the label for the entry you pick.
Reply | P
(P: 2.9 µM, Q: 1.2 µM)

###

Target: human TLR2 (Homo sapiens)
Construct: host or cells: HEK-Blue hTLR2 (HEK-293)
Assay: HEK-Blue hTLR2 antagonism assay (SEAP reporter) with agonist Pam2CSK4 (TLR2/6 agonist)
Assay type: cell-based
Details: Table B; HEK-Blue hTLR2 cells, ~3×EC50 Pam2CSK4, 18 h, SEAP OD 655 nm, 8-point dilutions
Readout Kind: IC50 (µM)

O=Cc1cc(C(=O)Nc2ccc(N3CCC(F)(F)CC3)cc2)cc(F)c1O [Compound B68] :: 3.5
O=Cc1cc(C#Cc2ccc(C(=O)NC3CC3)cc2)cc(F)c1O [Compound B80] :: 15.5
O=Cc1cc(C(=O)Nc2ccc(N3CC4(CC4)CC3=O)cc2)cc(F)c1O [Compound B78] :: 34.4
O=Cc1cc(C(=O)Nc2cccc(N3CCCC3)c2)cc(F)c1O [Compound B71] :: 2.6

(I) O=Cc1cc(C(=O)Nc2cnc(N3CCCC3)nc2)cc(F)c1O [Compound B59]
(II) CC1(C)CN(c2ccc(NC(=O)c3cc(F)c(O)c(C=O)c3)cn2)c2ccccc21 [Compound B87]
(III) O=Cc1cc(C(=O)Nc2ccc(C(F)(F)F)cc2)cc(F)c1O [Compound B13]
(IV) O=Cc1cc(C(=O)Nc2ccc(N3CCCC3)nc2)cc(F)c1O [Compound B61]
(V) O=Cc1cc(C(=O)Nc2ccc(N3CCN(C4CC4)CC3)cc2)cc(F)c1O [Compound B69]
Ask | Hello, I need these entries ordered by IC50, highest reading first. Thanks! Write the labels, ordered according to the request.
Reply | I, IV, V, III, II
(I: 32.7 µM, IV: 16.4 µM, V: 7.6 µM, III: 1.9 µM, II: 0.5 µM)
